test system: rodent lifetime carcinogenesis bioassay, tumor incidence TD50; test: carcinogenic potency in animals, long-term in vivo studies, CPDB compilation (AID 1745844); conditions: rat; strain Fischer; males; in feed; site: liver; lesion: hyperplastic nodule; dosed 36 weeks; study length 74 weeks
property_name: TD50 (mg/kg/day)

- chemical_string: "O=CNc1nc(-c2ccc([N+](=O)[O-])o2)cs1"
  numeric_readout: 263

====

tested on: rodent lifetime carcinogenesis bioassay, tumor incidence TD50; assay: carcinogenic potency in animals, long-term in vivo studies, CPDB compilation (AID 1745844); settings: mouse; strain CDF1; males; in feed; site: blood vessels; lesion: several types; types named in the paper; dosed 97 weeks; study length 97 weeks

- chemical_string: "Nc1ccc2c(n1)[nH]c1ccccc12"
  TD50: "82.6 mg/kg/day"
